Hi, quick share: literature pKi data for human leukocyte elastase (HLE) (Homo sapiens, UniProt P08246), several sources combined.
As a rule, pKi stands for the negative log10 of the concentration, concentration in M.

Reported pKi for O=C(OCN1C(=O)C2CCCN2S1(=O)=O)c1c(Cl)cccc1Cl (stereo not drawn) : what is it? 6.77

And then "CC(C)c1cc(O)cc2c1C(=O)N(COc1cc(C(F)(F)F)nn1-c1ccccc1)S2(=O)=O" , what is it? 9.11

Can you check CCCC1C(=O)N(CSc2nnnn2-c2ccccc2)S(=O)(=O)N1C (stereo not drawn) next? 8.44

Moving on to the next compound: CC(C)CCC1C(=O)N(COc2cc(C(F)(F)F)nn2-c2ccccc2)S(=O)(=O)N1C (stereo not drawn) 8.62

Do the same for "COc1cccc2c1C(=O)N(c1c(F)c(F)nc(F)c1F)S2(=O)=O" please 8.19

Moving on to "COc1cc(C(C)C)c2c(c1)S(=O)(=O)N(COc1cc(C)nn1C)C2=O" 9.14

Would you kindly repeat that for "CC(C)Oc1cccc2c1C(=O)N(c1c(F)c(F)nc(F)c1F)S2(=O)=O" ? 6.85

Another compound to look at: "CC(C)c1cc(OCc2ccc(CN(C)C)o2)cc2c1C(=O)N(COc1cc(C(F)(F)F)nn1-c1ccccc1)S2(=O)=O" 9.92

----------
For reference, the following log10(Ki) results for human leukocyte elastase (HLE) (Homo sapiens, UniProt P08246) were taken from various sources.
Each number you see is log10 of Ki, and the unit inside the log is nM.

Solved cases (7 shown):
{"columns": ["compound", "test system", "log10(Ki)"],
 "data": [
  ["COc1cc(C(C)C)c2c(c1)S(=O)(=O)N(COc1cc(C(F)(F)F)nn1-c1ccccn1)C2=O", "human leukocyte elastase (HLE) (Homo sapiens, UniProt P08246)", -1.62],
  ["COc1cc(C(C)C)c2c(c1)S(=O)(=O)N(COc1cc(Br)nn1-c1ccccc1)C2=O", "human leukocyte elastase (HLE) (Homo sapiens, UniProt P08246)", -1.18],
  ["COc1cc(C(C)C)c2c(c1)S(=O)(=O)N(COc1cc(-c3ccncc3)nn1-c1ccc(Cl)cc1)C2=O", "human leukocyte elastase (HLE) (Homo sapiens, UniProt P08246)", -0.72],
  ["CC(C)c1cccc2c1C(=O)N(c1c(F)c(F)nc(F)c1F)S2(=O)=O", "human leukocyte elastase (HLE) (Homo sapiens, UniProt P08246)", 2.00],
  ["CCCC1NS(=O)(=O)N(COC(=O)c2c(Cl)cccc2Cl)C1=O (centres unmarked)", "human leukocyte elastase (HLE) (Homo sapiens, UniProt P08246)", 1.08],
  ["CN1C(CCC(C)(C)Cl)C(=O)N(COC(=O)c2c(Cl)cccc2Cl)S1(=O)=O (centres unmarked)", "human leukocyte elastase (HLE) (Homo sapiens, UniProt P08246)", 0.64],
  ["CCCC1C(=O)N(COC(=O)c2c(Cl)cccc2Cl)S(=O)(=O)N1C (centres unmarked)", "human leukocyte elastase (HLE) (Homo sapiens, UniProt P08246)", -0.96]
]}

Query (compound): "COc1cc(C(C)C)c2c(c1)S(=O)(=O)N(COc1cc(C(F)(F)F)nn1-c1ccc(Cl)cn1)C2=O" ; field requested: log10(Ki) -1.05
